Value source: patent US20190263905A1

Reported OD 450 nm values for the following binders.
Target: T1, Antigen CD66c (CEACAM6; Sino Biological, Inc.) (UniProt P40199 35-320)
T1 construct: Bought antigen coated on the ELISA plate; construct not described; also called CD66c antigen; CECACAM6
T1 sequence (looked up): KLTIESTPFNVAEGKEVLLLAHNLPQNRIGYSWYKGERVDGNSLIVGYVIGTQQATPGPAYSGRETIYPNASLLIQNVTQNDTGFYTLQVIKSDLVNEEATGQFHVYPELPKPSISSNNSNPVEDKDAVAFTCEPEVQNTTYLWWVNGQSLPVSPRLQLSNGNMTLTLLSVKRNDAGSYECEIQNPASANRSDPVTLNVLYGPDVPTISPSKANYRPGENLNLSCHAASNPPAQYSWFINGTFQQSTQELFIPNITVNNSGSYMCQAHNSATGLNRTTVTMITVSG
Experiment: ELISA, coated CEACAM6 100 ng/well, antibody 370.37 ng/ml

{"columns": ["Binder", "Unit String", "OD 450 nm"],
 "data": [
  ["recombinant humanized anti-CD66c antibody Protein ID 3043 (Vk8 + VH6) (antibody, human IgG1, V domains shown, also called hu 3043; #71) VH: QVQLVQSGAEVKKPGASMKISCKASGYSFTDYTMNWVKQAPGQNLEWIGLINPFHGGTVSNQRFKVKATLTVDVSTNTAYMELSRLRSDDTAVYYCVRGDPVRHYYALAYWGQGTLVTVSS VL: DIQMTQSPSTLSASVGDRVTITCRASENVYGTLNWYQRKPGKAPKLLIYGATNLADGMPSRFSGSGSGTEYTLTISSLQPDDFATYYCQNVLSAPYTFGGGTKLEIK", "OD", 2.92],
  ["recombinant humanized anti-CD66c antibody Protein ID 2938 (Vk5 + VH7) (antibody, human IgG1, V domains shown, also called hu 2938) VH: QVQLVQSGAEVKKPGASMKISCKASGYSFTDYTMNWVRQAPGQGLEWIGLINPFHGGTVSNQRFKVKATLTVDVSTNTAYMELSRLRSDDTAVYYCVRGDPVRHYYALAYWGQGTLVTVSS VL: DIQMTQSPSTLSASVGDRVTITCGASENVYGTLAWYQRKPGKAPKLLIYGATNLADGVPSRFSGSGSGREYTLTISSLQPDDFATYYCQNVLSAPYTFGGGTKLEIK", "OD", 3.08],
  ["recombinant humanized anti-CD66c antibody Protein ID 3058 (Vk8 + VH11) (antibody, human IgG1, V domains shown, also called hu 3058; #86) VH: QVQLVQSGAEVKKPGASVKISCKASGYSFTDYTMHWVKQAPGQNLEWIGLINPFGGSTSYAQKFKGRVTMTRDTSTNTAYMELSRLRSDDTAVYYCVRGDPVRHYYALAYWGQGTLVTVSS VL: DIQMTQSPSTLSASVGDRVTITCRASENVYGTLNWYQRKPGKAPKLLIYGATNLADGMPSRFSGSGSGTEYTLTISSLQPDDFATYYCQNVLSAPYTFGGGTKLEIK", "OD", 2.8],
  ["recombinant humanized anti-CD66c antibody Protein ID 3019 (Vk7 + VH10) (antibody, human IgG1, V domains shown, also called hu 3019; #51) VH: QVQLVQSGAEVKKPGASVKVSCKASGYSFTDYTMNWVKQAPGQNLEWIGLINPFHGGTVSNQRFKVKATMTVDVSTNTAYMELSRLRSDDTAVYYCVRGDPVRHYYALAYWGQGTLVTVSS VL: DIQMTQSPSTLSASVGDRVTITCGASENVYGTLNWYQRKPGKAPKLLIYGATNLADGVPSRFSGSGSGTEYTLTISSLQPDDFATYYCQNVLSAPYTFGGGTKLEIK", "OD", 3.23],
  ["anti-CD66c chimeric antibody 8F5 (antibody, human IgG1, V domains shown, also called chimeric 8F5 antibody; chi 8F5) VH: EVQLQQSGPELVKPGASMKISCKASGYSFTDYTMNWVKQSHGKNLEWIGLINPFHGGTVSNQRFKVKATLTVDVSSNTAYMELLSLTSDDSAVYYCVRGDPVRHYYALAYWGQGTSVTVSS VL: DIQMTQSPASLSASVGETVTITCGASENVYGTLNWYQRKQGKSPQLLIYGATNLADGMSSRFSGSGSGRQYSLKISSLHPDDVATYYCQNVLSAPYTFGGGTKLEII", "OD", 3.3],
  ["recombinant humanized anti-CD66c antibody Protein ID 3007 (Vk7 + VH6) (antibody, human IgG1, V domains shown, also called hu 3007; #43) VH: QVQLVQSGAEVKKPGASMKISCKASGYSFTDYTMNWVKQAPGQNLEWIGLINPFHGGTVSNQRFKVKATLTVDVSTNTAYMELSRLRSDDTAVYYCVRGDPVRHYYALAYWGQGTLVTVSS VL: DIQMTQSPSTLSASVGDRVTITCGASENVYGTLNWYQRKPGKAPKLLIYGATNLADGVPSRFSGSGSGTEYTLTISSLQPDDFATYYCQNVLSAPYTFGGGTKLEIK", "OD", 3.16]
]}
